Documented Large movements Occurrence across a set of molecules
Test system: Male Sprague-Dawley rats
EXPERIMENTAL_DETAILS: Spontaneous locomotor activity in rats (sedative properties)
Format: in vivo, rat
ASSAY_SETUP: 1 mg/kg i.p.; 45 minutes after administration
// no unit, no text: just the number

Check out these entries, answers already filled in.
Exam item: Hi! What's the reported Large movements Occurrence for COc1cc2c(cc1OC)C1CC(=O)C(CC(C)C)CN1CC2 (racemic) [Tetrabenazine] on Male Sprague-Dawley rats?
Marked response: 189

Exam item: // query: COc1cc2c(cc1OC)[C@H]1C[C@H](O)[C@@H](CC(C)C)CN1CC2 (single isomer, unassigned) [Isomer B, 3,11b-cis-dihydrotetrabenazine]
Marked response: 297

Exam item: // query: O=C(CCCN1CCC(O)(c2ccc(Cl)cc2)CC1)c1ccc(F)cc1 [Haloperidol, reference compound]
Marked response: 58

Next:
Exam item: Hi! What's the reported Large movements Occurrence for COc1cc2c(cc1OC)[C@H]1C[C@@H](O)[C@@H](CC(C)C)CN1CC2 (single isomer, unassigned) [Isomer C, 3,11b-cis-dihydrotetrabenazine] on Male Sprague-Dawley rats?
Marked response: 295

---

System: Male Sprague-Dawley rats
EXPERIMENTAL_DETAILS: Spontaneous locomotor activity in rats (sedative properties)
Assay type: in vivo, rat
ASSAY_SETUP: 1 mg/kg i.p.; 45 minutes after administration
Documented Large movements Duration across a set of compounds
# value in s; strip the unit string

Check out these entries, answers already filled in.
Exam item: Hi! What's the reported Large movements Duration for COc1cc2c(cc1OC)[C@H]1C[C@H](O)[C@@H](CC(C)C)CN1CC2 (single isomer, unassigned) [Isomer B, 3,11b-cis-dihydrotetrabenazine] on Male Sprague-Dawley rats?
Marked response: 87.0

Exam item: // query: O=C(CCCN1CCC(O)(c2ccc(Cl)cc2)CC1)c1ccc(F)cc1 [Haloperidol, reference compound]
Marked response: 14.8

Exam item: // query: COc1cc2c(cc1OC)[C@H]1C[C@@H](O)[C@@H](CC(C)C)CN1CC2 (single isomer, unassigned) [Isomer C, 3,11b-cis-dihydrotetrabenazine]
Marked response: 71.8

Pending compound:
Exam item: Hi! What's the reported Large movements Duration for COc1cc2c(cc1OC)C1CC(=O)C(CC(C)C)CN1CC2 (racemic) on Male Sprague-Dawley rats?
Marked response: 46.5

---

TESTED_TARGET: Adrenergic α2A Receptor (Homo sapiens)
Construct: expressed in transfected cells; host or cells: insect Sf9 cells
Sequence (P08913 whole entry): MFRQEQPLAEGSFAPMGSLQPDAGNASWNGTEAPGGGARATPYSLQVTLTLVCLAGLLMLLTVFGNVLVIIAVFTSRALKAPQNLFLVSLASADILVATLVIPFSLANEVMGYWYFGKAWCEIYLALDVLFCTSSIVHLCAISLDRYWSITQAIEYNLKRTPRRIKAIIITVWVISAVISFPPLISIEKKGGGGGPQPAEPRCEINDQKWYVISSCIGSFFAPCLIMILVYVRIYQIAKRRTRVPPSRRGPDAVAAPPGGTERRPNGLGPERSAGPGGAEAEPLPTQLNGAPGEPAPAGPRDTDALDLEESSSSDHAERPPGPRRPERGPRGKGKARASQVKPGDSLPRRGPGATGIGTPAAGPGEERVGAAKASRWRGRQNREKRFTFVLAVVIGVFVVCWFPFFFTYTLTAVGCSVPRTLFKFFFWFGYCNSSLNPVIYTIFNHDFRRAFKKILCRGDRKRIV
EXPERIMENTAL_DETAILS: Adrenergic α2A receptor radioligand binding
ASSAY_SETUP: 10 μM; 1 nM [3H] MK-912
Documented Percentage Inhibition of Specific Binding, α2A Receptor across a set of compounds
# value in %; strip the unit string

Check out these entries, answers already filled in.
Exam item: Hi! What's the reported Percentage Inhibition of Specific Binding, α2A Receptor for COc1cc2c(cc1OC)[C@H]1C[C@H](O)[C@@H](CC(C)C)CN1CC2 (single isomer, unassigned) [Isomer A, 3,11b-cis-dihydrotetrabenazine] on Adrenergic α2A Receptor (Homo sapiens)?
Marked response: 86

Exam item: // query: COc1cc2c(cc1OC)[C@H]1C[C@@H](O)[C@@H](CC(C)C)CN1CC2 (single isomer, unassigned) [Isomer D, 3,11b-cis-dihydrotetrabenazine]
Marked response: 87

Exam item: // query: COc1cc2c(cc1OC)[C@H]1C[C@@H](O)[C@@H](CC(C)C)CN1CC2 (single isomer, unassigned) [Isomer C, 3,11b-cis-dihydrotetrabenazine]
Marked response: 13

Pending compound:
Exam item: Hi! What's the reported Percentage Inhibition of Specific Binding, α2A Receptor for COc1cc2c(cc1OC)[C@H]1C[C@H](O)[C@@H](CC(C)C)CN1CC2 (single isomer, unassigned) [Isomer B, 3,11b-cis-dihydrotetrabenazine] on Adrenergic α2A Receptor (Homo sapiens)?
Marked response: 12

---

EXPERIMENTAL_DETAILS: in vitro
ASSAY_SETUP: human, Caco-2, pH 7.4
ENDPOINT_LABEL: recovery at 1 h, 50 μM (%)
# value in %; strip the unit string

Exam item: Please look up its recovery at 1 h, 50 μM: OC[C@@H](O)[C@@H](O)[C@H](O)[C@H](O)CO [Mannitol]
Marked response: 97.1

Exam item: // query: O=C(O)c1ccccc1O [Salicylic Acid]
Marked response: 91.5

Next:
Exam item: Please look up its recovery at 1 h, 50 μM: COc1cc2c(cc1OC)[C@H]1C[C@H](O)[C@@H](CC(C)C)CN1CC2 (single isomer, unassigned) [Isomer B, 3,11b-cis-dihydrotetrabenazine]
Marked response: 90.1

Exam item: // query: COc1cc2c(cc1OC)[C@H]1C[C@@H](O)[C@@H](CC(C)C)CN1CC2 (single isomer, unassigned) [Isomer C, 3,11b-cis-dihydrotetrabenazine]
Marked response: 102

Exam item: // query: C[C@]12CC[C@H]3[C@@H](CCC4=CC(=O)CC[C@@]43C)[C@@H]1CC[C@@H]2O [Testosterone]
Marked response: 105

---

System: Caco-2 monolayer
ASSAY_SETUP: Caco-2
ENDPOINT_LABEL: permeability in the Caco-2 model (in words)

Exam item: Please look up its permeability in the Caco-2 model (in words): COc1cc2c(cc1OC)[C@H]1C[C@@H](O)[C@@H](CC(C)C)CN1CC2 (single isomer, unassigned) [Isomer D, 3,11b-cis-dihydrotetrabenazine]
Marked response: high permeability

Exam item: // query: COc1cc2c(cc1OC)[C@H]1C[C@@H](O)[C@@H](CC(C)C)CN1CC2 (single isomer, unassigned) [Isomer C, 3,11b-cis-dihydrotetrabenazine]
Marked response: high permeability

Exam item: // query: COc1cc2c(cc1OC)[C@H]1C[C@H](O)[C@@H](CC(C)C)CN1CC2 (single isomer, unassigned) [Isomer A, 3,11b-cis-dihydrotetrabenazine]
Marked response: high permeability

---

EXPERIMENTAL_DETAILS: in vitro
ASSAY_SETUP: human, Caco-2, pH 7.4
ENDPOINT_LABEL: Papp A→B at 1 h, 50 μM (×10⁻⁶ cm/s)
# value in ×10⁻⁶ cm/s; strip the unit string

Check out these entries, answers already filled in.
Exam item: Please look up its Papp A→B at 1 h, 50 μM: O=C(O)c1ccccc1O
Marked response: 8.91

Exam item: // query: COc1cc2c(cc1OC)[C@H]1C[C@@H](O)[C@@H](CC(C)C)CN1CC2 (single isomer, unassigned) [Isomer C, 3,11b-cis-dihydrotetrabenazine]
Marked response: 21.1

Pending compound:
Exam item: Please look up its Papp A→B at 1 h, 50 μM: OC[C@@H](O)[C@@H](O)[C@H](O)[C@H](O)CO
Marked response: 1.18

---

Tested on: Male Sprague-Dawley rats
EXPERIMENTAL_DETAILS: Spontaneous locomotor activity in rats (sedative properties)
Type: in vivo, rat
ASSAY_SETUP: 1 mg/kg i.p.; 3 hours after administration
ENDPOINT_LABEL: Large movements Duration (s)
# value in s; strip the unit string

Exam item: Hi! What's the reported Large movements Duration for COc1cc2c(cc1OC)C1CC(=O)C(CC(C)C)CN1CC2 (racemic) on Male Sprague-Dawley rats?
Marked response: 21.5

Exam item: // query: COc1cc2c(cc1OC)[C@H]1C[C@@H](O)[C@@H](CC(C)C)CN1CC2 (single isomer, unassigned) [Isomer C, 3,11b-cis-dihydrotetrabenazine]
Marked response: 30.3

Exam item: // query: O=C(CCCN1CCC(O)(c2ccc(Cl)cc2)CC1)c1ccc(F)cc1 [Haloperidol, reference compound]
Marked response: 2.2

Pending compound:
Exam item: Hi! What's the reported Large movements Duration for COc1cc2c(cc1OC)[C@H]1C[C@H](O)[C@@H](CC(C)C)CN1CC2 (single isomer, unassigned) [Isomer B, 3,11b-cis-dihydrotetrabenazine] on Male Sprague-Dawley rats?
Marked response: 34.5

---

Documented Percentage Inhibition of Specific Binding, SERT across a set of compounds
TESTED_TARGET: Serotonin Transporter (SERT) (Homo sapiens, UniProt P31645)
Construct: expressed in transfected cells; host or cells: HEK-293 cells
Sequence (P31645 whole entry): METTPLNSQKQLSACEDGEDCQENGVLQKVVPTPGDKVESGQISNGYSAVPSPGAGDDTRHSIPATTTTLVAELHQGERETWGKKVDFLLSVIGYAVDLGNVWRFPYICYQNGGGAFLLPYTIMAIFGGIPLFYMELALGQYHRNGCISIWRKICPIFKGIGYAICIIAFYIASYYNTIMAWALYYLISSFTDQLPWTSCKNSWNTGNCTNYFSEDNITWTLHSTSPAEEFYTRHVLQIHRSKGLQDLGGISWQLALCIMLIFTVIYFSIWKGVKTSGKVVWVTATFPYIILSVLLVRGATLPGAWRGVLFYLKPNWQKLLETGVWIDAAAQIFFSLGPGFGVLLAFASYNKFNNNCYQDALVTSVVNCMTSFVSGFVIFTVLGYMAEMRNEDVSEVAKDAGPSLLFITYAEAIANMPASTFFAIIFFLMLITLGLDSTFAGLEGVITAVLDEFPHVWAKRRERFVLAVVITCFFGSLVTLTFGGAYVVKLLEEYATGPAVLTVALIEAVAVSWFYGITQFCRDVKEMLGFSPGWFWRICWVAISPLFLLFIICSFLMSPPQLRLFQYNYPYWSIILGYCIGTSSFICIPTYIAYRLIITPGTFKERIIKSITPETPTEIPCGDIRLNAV
EXPERIMENTAL_DETAILS: Serotonin transporter (SERT) radioligand binding
ASSAY_SETUP: 10 μM; 0.15 nM [125I] RTI-55
# value in %; strip the unit string

Check out these entries, answers already filled in.
Exam item: Please look up its Percentage Inhibition of Specific Binding, SERT: COc1cc2c(cc1OC)[C@H]1C[C@@H](O)[C@@H](CC(C)C)CN1CC2 (single isomer, unassigned) [Isomer D, 3,11b-cis-dihydrotetrabenazine]
Marked response: 8

Exam item: // query: COc1cc2c(cc1OC)[C@H]1C[C@H](O)[C@@H](CC(C)C)CN1CC2 (single isomer, unassigned) [Isomer A, 3,11b-cis-dihydrotetrabenazine]
Marked response: 19

Exam item: // query: COc1cc2c(cc1OC)[C@H]1C[C@@H](O)[C@@H](CC(C)C)CN1CC2 (single isomer, unassigned) [Isomer C, 3,11b-cis-dihydrotetrabenazine]
Marked response: 77

Pending compound:
Exam item: Please look up its Percentage Inhibition of Specific Binding, SERT: COc1cc2c(cc1OC)[C@H]1C[C@H](O)[C@@H](CC(C)C)CN1CC2 (single isomer, unassigned) [Isomer B, 3,11b-cis-dihydrotetrabenazine]
Marked response: 86
